Please go through the items and note down their AUC(0-t).
Experiment: AUC (0 to t) in ICR mouse at 5 mg/kg, iv by LC-MS/MS analysis
Type: ADME, organism-based
Conditions: in vivo
Use ng·h/mL as the unit, but write only the number.

Looking up CCCN(CCCCNC(=O)c1ccc(-c2ccccn2)cc1)C[C@@H]1C[C@H]1c1cccc(Cl)c1Cl.Cl , I see its AUC(0-t) listed as 976

Looking up CCCN(CCCCNC(=O)c1ccc(-c2ccccn2)cc1)C[C@@H]1C[C@H]1c1cc(F)ccc1OC.Cl , I see its AUC(0-t) listed as 660

Looking up CCCN(CCCCNC(=O)c1cc2ccccc2[nH]1)C[C@@H]1C[C@H]1c1cccc(Cl)c1Cl.Cl , I see its AUC(0-t) listed as 629

Looking up CCCN(CCCCNC(=O)c1ccc2ccccc2c1)C[C@@H]1C[C@H]1c1cccc(Cl)c1Cl.Cl , I see its AUC(0-t) listed as 616

====

Please go through the items and note down their pKi.
Target: UniProt:P21917
Sequence (P21917 whole entry): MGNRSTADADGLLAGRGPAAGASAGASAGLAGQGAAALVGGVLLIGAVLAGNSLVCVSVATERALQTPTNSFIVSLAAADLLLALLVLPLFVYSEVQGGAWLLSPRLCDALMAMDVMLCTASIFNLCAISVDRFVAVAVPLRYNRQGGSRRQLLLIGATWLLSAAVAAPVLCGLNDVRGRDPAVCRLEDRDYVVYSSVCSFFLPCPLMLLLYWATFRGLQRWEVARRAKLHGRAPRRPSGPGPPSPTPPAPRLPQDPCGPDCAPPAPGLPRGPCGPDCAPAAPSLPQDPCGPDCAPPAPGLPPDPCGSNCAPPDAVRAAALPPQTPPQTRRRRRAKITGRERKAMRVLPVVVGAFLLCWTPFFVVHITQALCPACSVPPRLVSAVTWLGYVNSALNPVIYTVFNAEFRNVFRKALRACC
Test: Displacement of [3H]-N-methylspiperone from recombinant human D4 receptor stably expressed in HEK cell membranes measured after 90 mins by microbeta scintillation counting method
As a rule, pKi stands for the negative log10 of the concentration, concentration in M.

Looking up CCCN(CCCCNC(=O)c1ccc2ccccc2c1)CC1CC1c1ccc(F)cc1 (stereo unspecified) , I see its pKi listed as 5.66

Looking up CCCN(CCCCNC(=O)c1ccc(-c2ccccn2)cc1)C[C@@H]1C[C@H]1c1cccc(Cl)c1Cl.Cl , I see its pKi listed as 6.17

Looking up COc1ccc(F)cc1C1CC1CNCCCSc1nnc(-c2ccccc2)n1C (stereo unspecified) , I see its pKi listed as 6.88

Looking up CCCN(CCCCNC(=O)c1ccc(-c2ccccn2)cc1)C[C@H]1C[C@@H]1c1cccc(Cl)c1Cl.Cl , I see its pKi listed as 6.04

Looking up CCCN(CCCCNC(=O)c1cc2ccccc2[nH]1)CC1CC1c1cccc(F)c1 (stereo unspecified) , I see its pKi listed as 6.17

Looking up CCCN(CCCCNC(=O)c1ccc(-c2ccccn2)cc1)CC1CC1c1cccc(Cl)c1 (stereo unspecified) , I see its pKi listed as 5.63

Looking up CCN(CCCSc1nnc(-c2ccccc2)n1C)CC1CC1c1cc(F)ccc1OCCF (stereo unspecified) , I see its pKi listed as 6.75

Looking up CCCN(CCCCNC(=O)c1ccc(-c2ccccn2)cc1)CC1CC1c1cccc(F)c1 (stereo unspecified) , I see its pKi listed as 5.65

Looking up CCCN(CCCCNC(=O)c1ccc(-c2ccccn2)cc1)CC1CC1c1ccc(F)cc1 (stereo unspecified) , I see its pKi listed as 5.54

Looking up CCCN(CCCCNC(=O)c1cc2ccccc2[nH]1)CC1CC1c1cccc(Cl)c1Cl (racemic) , I see its pKi listed as 5.95

Looking up CCCN(CCCCNC(=O)c1cc2ccccc2[nH]1)C[C@@H]1C[C@H]1c1cccc(Cl)c1Cl.Cl , I see its pKi listed as 5.98

====

Experiment: Drug level in ICR mouse plasma at 10 mg/kg, po measured after 2 hrs by LC-MS/MS analysis
Assay type: ADME, organism-based
attribute measured: concentration at 2 h (ng/mL)
Use ng/mL as the unit, but write only the number.

Looking up CCCN(CCCCNC(=O)c1cc2ccccc2[nH]1)C[C@@H]1C[C@H]1c1cccc(Cl)c1Cl.Cl , I see its concentration at 2 h listed as 67.7

Looking up CCCN(CCCCNC(=O)c1ccc(-c2ccccn2)cc1)C[C@@H]1C[C@H]1c1cc(F)ccc1OC.Cl , I see its concentration at 2 h listed as 8.4

Looking up CCCN(CCCCNC(=O)c1ccc2ccccc2c1)C[C@@H]1C[C@H]1c1cccc(Cl)c1Cl.Cl , I see its concentration at 2 h listed as 16.4

Looking up CCCN(CCCCNC(=O)c1ccc(-c2ccccn2)cc1)C[C@@H]1C[C@H]1c1cccc(Cl)c1Cl.Cl , I see its concentration at 2 h listed as 44.1

====

Biological target: D(4) dopamine receptor (Homo sapiens, UniProt P21917)
Sequence (P21917 whole entry): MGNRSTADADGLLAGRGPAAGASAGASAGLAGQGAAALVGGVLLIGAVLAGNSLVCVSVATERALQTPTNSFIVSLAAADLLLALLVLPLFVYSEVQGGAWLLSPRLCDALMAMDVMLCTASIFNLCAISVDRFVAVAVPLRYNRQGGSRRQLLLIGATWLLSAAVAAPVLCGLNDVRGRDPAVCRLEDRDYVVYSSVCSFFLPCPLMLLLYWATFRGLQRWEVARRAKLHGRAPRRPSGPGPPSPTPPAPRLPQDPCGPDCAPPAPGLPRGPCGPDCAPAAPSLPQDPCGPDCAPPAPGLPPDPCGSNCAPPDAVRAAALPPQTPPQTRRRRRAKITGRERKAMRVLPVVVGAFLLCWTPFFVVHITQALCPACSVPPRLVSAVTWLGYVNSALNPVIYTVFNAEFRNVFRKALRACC
Test: Displacement of [3H]-N-methylspiperone from recombinant human D4 receptor stably expressed in HEK cell membranes measured after 90 mins by microbeta scintillation counting method
attribute measured: Ki (nM)
Use nM as the unit, but write only the number.

Looking up CCCN(CCCCNC(=O)c1ccc(-c2ccccn2)cc1)CC1CC1c1ccc(Cl)cc1 (stereo not given) , I see its Ki listed as 1410

Looking up CCCN(CCCCNC(=O)c1cc2ccccc2[nH]1)CC1CC1c1cc(Cl)ccc1OC (stereo not given) , I see its Ki listed as 575

Looking up CCOc1ccc(F)cc1C1CC1CN(C)CCCSc1nnc(-c2ccccc2)n1C (stereo not given) , I see its Ki listed as 989

Looking up CCCN(CCCCNC(=O)c1ccc2ccccc2c1)C[C@H]1C[C@@H]1c1cccc(Cl)c1Cl.Cl , I see its Ki listed as 776

Looking up CCCN(CCCCNC(=O)c1ccc(-c2ccccn2)cc1)CC1CC1c1cccc(Cl)c1Cl (racemic) , I see its Ki listed as 2010

Looking up CCCN(CCCCNC(=O)c1ccc2ccccc2c1)CC1CC1c1cccc(F)c1 (stereo not given) , I see its Ki listed as 1300

Looking up CCCN(CCCCNC(=O)c1cc2ccccc2[nH]1)CC1CC1c1ccc(C(F)(F)F)cc1 (stereo not given) , I see its Ki listed as 2070

Looking up CCN(CCCCNC(=O)c1cc2ccccc2[nH]1)CC1CC1c1cc(F)ccc1OC (stereo not given) , I see its Ki listed as 220

Looking up CCCN(CCCCNC(=O)c1ccc2ccccc2c1)CC1CC1c1cc(Cl)ccc1OC (stereo not given) , I see its Ki listed as 945

Looking up CCN(CCCSc1nnc(-c2ccccc2)n1C)CC1CC1c1cc(Cl)ccc1OC (stereo not given) , I see its Ki listed as 241

Looking up CCCN(CCCCNC(=O)c1ccc2ccccc2c1)CC1CC1c1cc(F)ccc1OC (stereo not given) , I see its Ki listed as 844

Looking up CCOc1ccc(F)cc1C1CC1CNCCCSc1nnc(-c2ccccc2)n1C (stereo not given) , I see its Ki listed as 501

Looking up CCCN(CCCCNC(=O)c1ccc(-c2ccccn2)cc1)CC1CC1c1cc(Cl)ccc1OC (stereo not given) , I see its Ki listed as 1830

Looking up CN(CCCSc1nnc(-c2ccccc2)n1C)CC1CC1c1cc(F)ccc1OCCF (stereo not given) , I see its Ki listed as 977

Looking up CCCN(CCCCNC(=O)c1ccc(-c2ccccn2)cc1)CC1CC1c1ccc(C(F)(F)F)cc1 (stereo not given) , I see its Ki listed as 2170

Looking up Cn1c(SCCCNCC2CC2c2cc(F)ccc2OCCF)nnc1-c1ccccc1 (stereo not given) , I see its Ki listed as 962

Looking up CCCN(CCCCNC(=O)c1ccc2ccccc2c1)CC1CC1c1ccc(C(F)(F)F)cc1 (stereo not given) , I see its Ki listed as 215

Looking up CCCN(CCCCNC(=O)c1cc2ccccc2[nH]1)CC1CC1c1cc(F)ccc1OC (stereo not given) , I see its Ki listed as 376

Looking up CCCN(CCCCNC(=O)c1cc2ccccc2[nH]1)CC1CC1c1ccc(Cl)cc1 (stereo not given) , I see its Ki listed as 510

Looking up CCCN(CCCSc1nnc(-c2ccccc2)n1C)CC1CC1c1cc(F)ccc1OC (stereo not given) , I see its Ki listed as 85.8
